Can you tell me koff for the items I'm about to list?
Target: T1, human CD22-ECD-His protein (human, UniProt P20273 20-687)
T1 construct: Recombinant, from HEK293E cells; also called hCD22-ECD-His; human CD22-His protein; not shown: His tag
T1 sequence: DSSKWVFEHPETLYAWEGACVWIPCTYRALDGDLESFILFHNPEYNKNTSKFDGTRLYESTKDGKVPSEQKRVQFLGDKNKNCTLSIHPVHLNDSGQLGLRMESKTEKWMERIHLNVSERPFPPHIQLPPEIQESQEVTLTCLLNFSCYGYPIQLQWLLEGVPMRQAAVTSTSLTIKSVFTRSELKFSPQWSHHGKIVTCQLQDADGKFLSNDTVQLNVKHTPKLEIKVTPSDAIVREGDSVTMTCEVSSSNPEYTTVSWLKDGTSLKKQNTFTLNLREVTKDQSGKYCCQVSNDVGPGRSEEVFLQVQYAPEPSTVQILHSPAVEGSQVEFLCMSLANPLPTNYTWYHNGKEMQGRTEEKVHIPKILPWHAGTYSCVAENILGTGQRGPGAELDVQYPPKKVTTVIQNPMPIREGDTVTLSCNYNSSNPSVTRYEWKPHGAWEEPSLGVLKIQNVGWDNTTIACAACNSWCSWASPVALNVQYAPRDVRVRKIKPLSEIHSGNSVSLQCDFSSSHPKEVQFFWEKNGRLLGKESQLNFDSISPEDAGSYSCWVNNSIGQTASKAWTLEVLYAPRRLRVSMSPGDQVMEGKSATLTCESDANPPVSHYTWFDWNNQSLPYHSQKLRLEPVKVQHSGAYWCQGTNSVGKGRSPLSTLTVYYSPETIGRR
Assay: SPR (Biacore), antibody captured on Protein A chip, CD22-ECD-His in solution
Give bare numbers, in s⁻¹.

[[record]]
binder = "F2.127.11 (antibody, human IgG1, lambda, V domains shown, Chimeric IgG1 lambda) VH: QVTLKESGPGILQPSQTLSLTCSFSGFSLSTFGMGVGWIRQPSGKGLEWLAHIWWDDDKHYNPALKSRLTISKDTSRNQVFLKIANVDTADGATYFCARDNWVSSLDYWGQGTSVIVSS VL: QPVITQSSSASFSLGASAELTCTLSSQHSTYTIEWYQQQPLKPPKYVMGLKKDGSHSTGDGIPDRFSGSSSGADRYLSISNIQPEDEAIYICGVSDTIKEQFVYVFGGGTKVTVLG"
unit_tag = "s⁻¹"
measured_number = 0.00066


Could you tell me koff for each of these binders? They are listed below.
1. F1.267.9 (antibody, human IgG1, kappa, V domains shown, Chimeric IgG1 kappa) VH: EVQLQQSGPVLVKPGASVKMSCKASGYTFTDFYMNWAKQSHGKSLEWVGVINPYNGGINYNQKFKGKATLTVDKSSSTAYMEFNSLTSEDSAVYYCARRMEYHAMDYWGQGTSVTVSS VL: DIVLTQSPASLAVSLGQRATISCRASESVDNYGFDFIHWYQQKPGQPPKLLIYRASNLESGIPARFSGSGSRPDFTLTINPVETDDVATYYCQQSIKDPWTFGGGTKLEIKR
2. F1.257.3 (antibody, human IgG1, kappa, V domains shown, Chimeric IgG1 kappa) VH: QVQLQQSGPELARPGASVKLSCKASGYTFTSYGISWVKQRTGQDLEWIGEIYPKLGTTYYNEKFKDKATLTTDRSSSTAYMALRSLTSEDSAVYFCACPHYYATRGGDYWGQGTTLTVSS VL: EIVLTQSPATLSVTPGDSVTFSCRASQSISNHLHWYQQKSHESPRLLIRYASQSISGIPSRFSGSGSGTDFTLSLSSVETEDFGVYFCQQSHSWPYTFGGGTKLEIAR

stdout:
0.000223
0.000113
